Test system: giant foxtail (Setaria faberii)
test_description: Test C preemergence
Assay type: in vivo
run_conditions: preemergence, Rate 250 g/ha, visual evaluation after 12 to 14 days
List of Plant response rating (0 to 100), Foxtail, Giant values.

Worked examples follow.
Enquiry: Plant response rating (0 to 100), Foxtail, Giant lookup needed for CC(C)(C)c1ccn(C2CCN(c3ccc(F)c(Br)c3)C2=O)n1 (centres unmarked) , thanks.
Return: 70

Enquiry: Recorded Plant response rating (0 to 100), Foxtail, Giant for O=C1C(n2ccc(C3CC3)n2)OCN1c1cccc(C(F)(F)F)c1 (centres unmarked) , please?
Return: 0

Enquiry: Consider the compound shown here: CC(C)(C)c1ccn(C2CCN(c3cccc(Br)c3)C2=O)n1 (centres unmarked) What is its recorded Plant response rating (0 to 100), Foxtail, Giant?
Return: 0

Further cases:
Enquiry: Could you tell me which Plant response rating (0 to 100), Foxtail, Giant is on file for O=C1C(n2ccc(C3CCC3)n2)SCN1c1cccc(OC(F)F)c1 (centres unmarked) ?
Return: 40

Enquiry: I'd like to know its Plant response rating (0 to 100), Foxtail, Giant. The compound in question is COC(=O)c1cccc(N2CCC(n3ccc(C(C)(C)C)n3)C2=O)c1 (centres unmarked)
Return: 100

----------
System: duck salad (Heteranthera limosa)
test_description: Test C flooded paddy test
Assay type: in vivo
run_conditions: flooded paddy test, Rate 62 g/ha; scale 0 to 100 (0 no effect, 100 complete control)
Items are presented alongside their recorded Plant response rating, Ducksalad.
Form field (numeric): enter value without unit.

Enquiry: Look up Plant response rating, Ducksalad: COc1cc(N2CCC(n3ccc(C(C)(C)C)n3)C2=O)ccc1Cl (centres unmarked) [Compound 117]
Return: 0

Enquiry: Dear colleague, I am looking for the recorded Plant response rating, Ducksalad of the following molecule: CCC(CC)c1ccn(C2OCN(c3cccc(OC(F)(F)F)c3)C2=O)n1 (centres unmarked) [Compound 68]
Return: 100

Enquiry: Value lookup for Plant response rating, Ducksalad; key = CC(C)(C)c1ccn(C2CCN(c3ccc(F)c(Cl)c3)C2=O)n1 (centres unmarked) [Compound 46]
Return: 0

Enquiry: What does the record list as Plant response rating, Ducksalad for CC(C)(C)c1ccn(C2SCN(c3cccc(C(F)(F)F)c3)C2=O)n1 (centres unmarked) [Compound 1] ?
Return: 60

Enquiry: Tell me the measured Plant response rating, Ducksalad of COc1cc(N2CCC(n3ccc(C(C)C)n3)C2=O)ccc1C (centres unmarked) [Compound 85] , please.
Return: 90

----------
Tested on: morningglory (Ipomoea hederacea)
test_description: Test C postemergence
Format: in vivo
run_conditions: Rate 125 g/ha, scale 0 to 100, 0 no effect, 100 complete control
quantity_kind: Plant response rating, Morningglory
The answer should be a number; do not append a unit.

Solved entries:
Enquiry: GET /values?readout=Plant response rating, Morningglory&system=morningglory (Ipomoea hederacea)&item= CCC(C)c1ccn(C2SCN(c3cccc(C(F)(F)F)c3)C2=O)n1 (centres unmarked)
Return: 20

Enquiry: API: value(readout= Plant response rating, Morningglory, system= morningglory (Ipomoea hederacea), query= CCC(C)c1ccn(C2SCN(c3cccc(OC(F)(F)F)c3)C2=O)n1 (centres unmarked) )
Return: 0

Enquiry: Record lookup: for morningglory (Ipomoea hederacea), what Plant response rating, Morningglory belongs to CC(C)(C)c1ccn(C2SCN(c3cccc(OC(F)(F)F)c3)C2=O)n1 (centres unmarked) ?
Return: 0

Enquiry: Give morningglory (Ipomoea hederacea) Plant response rating, Morningglory for O=C1C(n2ccc(C3CCC3)n2)SCN1c1cccc(C(F)(F)F)c1 (centres unmarked)
Return: 0

Enquiry: Kindly state the measured Plant response rating, Morningglory obtained for CCC(CC)c1ccn(C2SCN(c3cccc(C(F)(F)F)c3)C2=O)n1 (centres unmarked) with morningglory (Ipomoea hederacea).
Return: 60

Continuing:
Enquiry: Identify the measured Plant response rating, Morningglory of COc1cc(N2CCC(n3ccc(C(C)C)n3)C2=O)ccc1C (centres unmarked) for morningglory (Ipomoea hederacea).
Return: 80

Enquiry: Lab note: need Plant response rating, Morningglory with morningglory (Ipomoea hederacea) for entry CCC(C)c1ccn(C2CCN(c3ccc(C)c(OC)c3)C2=O)n1 (centres unmarked) , please look it up.
Return: 60

Enquiry: // lookup Plant response rating, Morningglory | system=morningglory (Ipomoea hederacea) | key= CCCC(C)c1ccn(C2OCN(c3cccc(OC(F)(F)F)c3)C2=O)n1 (centres unmarked)
Return: 0

FYI, the data here is from patent US7138361B2.
